# target-of-assay: redox function of APE1 (Homo sapiens, UniProt P27695)
# Sequence (P27695 whole entry): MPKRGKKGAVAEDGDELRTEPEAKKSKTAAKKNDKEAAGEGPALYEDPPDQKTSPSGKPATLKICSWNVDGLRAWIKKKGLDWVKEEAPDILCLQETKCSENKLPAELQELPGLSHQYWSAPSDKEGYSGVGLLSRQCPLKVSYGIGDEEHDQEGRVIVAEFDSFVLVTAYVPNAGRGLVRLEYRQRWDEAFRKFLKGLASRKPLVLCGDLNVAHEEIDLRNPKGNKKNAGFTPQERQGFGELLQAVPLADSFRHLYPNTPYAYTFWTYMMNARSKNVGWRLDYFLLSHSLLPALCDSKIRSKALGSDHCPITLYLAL
# test: Redox EMSA Assay
# Type: biochemical
# conditions: 0.02 mM DTT
endpoint-label: IC50 (µM)

[I] CCC/C(=C\C1=C(Cl)C(=O)c2ccccc2C1=O)C(=O)N(CC)CC [Example 23]
[II] CCCC/C(=C\C1=C(OC)C(=O)c2ccccc2C1=O)C(=O)O [Example 33]
Prompt: Please indicate which entry, I or II , has the lower recorded IC50 value. // respond with label for picked entry
Response: II
(II: 0.5 µM, I: 2.5 µM)

[I] CCCC/C(=C\C1=C(C)C(=O)C(OC)=C(OC)C1=O)C(=O)N(C)OC [Example 31]
[II] CCCC(=CC1=C(OC)C(=O)c2ccccc2C1=O)C(=O)N(C)C [Example 26]
[III] CCCC/C(=C\C1=C(C)C(=O)c2ccccc2C1=O)C(=O)NC1CC1 [Example 11]
[IV] CCCC/C(=C\C1=C(C)C(=O)c2ccccc2C1=O)C(=O)N(CC)CC [Example 9]
[V] CCCC/C(=C/C1=C(C)C(=O)c2ccccc2C1=O)C(=O)NCCOC [Example 21]
Prompt: Sort (5 molecules) by IC50: min first. Dear reader, please state the labels in the requested order.
Response: II, III, I, V, IV
(II: 2.6 µM, III: 14 µM, I: 24 µM, V: 40 µM, IV: 120 µM)

[1] CCC/C(=C\C1=C(OC)C(=O)c2ccccc2C1=O)C(=O)NCC [Example 3]
[2] CCCC/C(=C\C1=C(C)C(=O)c2ccccc2C1=O)C(=O)NC [Example 6]
Prompt: Would you let me know which has the greater IC50 value, 1 or 2 ? Selection: enter the item's label.
Response: 2

* * *

Observed IC50 values for redox function of APE1 (Homo sapiens, UniProt P27695) are listed in what follows.
endpoint-label: IC50 (µM)

Known results for compounds:
smiles_structure=CCCC/C(=C\C1=C(C)C(=O)c2ccccc2C1=O)C(=O)N(C)C endpoint_label=IC50 units_text=µM numeric_value=23
smiles_structure=CCC/C(=C\C1=C(OC)C(=O)c2ccccc2C1=O)C(=O)N(C)C endpoint_label=IC50 units_text=µM numeric_value=2.3

[P] CCCCCCCCC/C(=C\C1=C(C)C(=O)C(OC)=C(OC)C1=O)C(=O)NOC
[Q] CCCC/C(=C\C1=C(C)C(=O)c2ccccc2C1=O)C(=O)NCCOC
Prompt: Lab note: check whether P or Q has the lower measured IC50. Write down the label attached to your selection.
Response: P
